Measured values drawn from ChEMBL document CHEMBL1201862 for this set.

Test system: SK-MEL-5
ASSAY OVERVIEW: NCI tumour cell line growth inhibition, 48 h
Active and inactive are the calls of the source. Rule as the data show it: active = GI50 up to about 1.1 µM and inactive = higher.
MEASURE: GI50

Solved entries (count: 3):
Please give measured GI50 of the following entry: "CCCCN(CC)C(=O)C1=C(C)NC(C)=C(C(=O)N(CC)CCCC)C1"
> 100 µM (inactive)

Report GI50, nothing else, for this compound: "COc1ccc(/C(Cl)=C(\C=O)c2ccc(F)cc2)cc1"
9.06 µM (inactive)

Dear colleague, please send me the reported GI50 for "COc1ccccc1N1C(=O)/C(=C/c2ccc(N(CCC#N)CCC#N)cc2C)N=C1c1cc([N+](=O)[O-])ccc1Cl" when you can.
> 100 µM (inactive)

Now look at this one.
Report GI50, nothing else, for this compound: "Nc1cc2ncnn2c(SCC(=O)N/N=C/C(Br)=C\c2ccccc2)n1"
13.4 µM (inactive)

---

Test system: KM12
ASSAY OVERVIEW: NCI tumour cell line growth inhibition, 48 h
Calls of active or inactive are those of the source. Cut-off read from the data, not from the text of the source: active = GI50 up to about 1.1 µM and inactive = higher.
MEASURE: GI50

Give GI50 for C=CCC1(C(=O)OC(C)(C)C)C(OC)=C(C(=O)OC(C)(C)C)C2C1C(C(=O)OC(C)(C)C)=C(OC)C2(CC=C)C(=O)OC(C)(C)C (configuration not stated)
> 100 µM (inactive)

Could you please provide reported GI50 for "Oc1nncc2[nH]c(-c3ccccc3)cc12" ? Thanks!
35.1 µM (inactive)

For the compound "CN(C1=NCCO1)c1cccc2ccccc12" , give its reported GI50.
> 10 µM (inactive)

For "O=C1Nc2ccccc2/C1=N/NS(=O)(=O)c1ccc(C(=O)O)cc1" , write its GI50.
> 100 µM (inactive)

// next entry
Specify GI50 for "C#CCNCC(=O)O" and stop.
> 100 µM (inactive)

---

Tested on: SK-MEL-28
ASSAY OVERVIEW: NCI tumour cell line growth inhibition, 48 h
Active and inactive are the calls of the source. Rule as the data show it: active = GI50 up to about 1.1 µM and inactive = higher.
Classes to choose from: active, inactive

Below are worked cases with known answers.
Returns: the outcome recorded for O=C1CSC2=NC3=C(CSC/C3=C\c3ccc(Cl)cc3)C(c3ccc(Cl)cc3)N12 (stereo unspecified) in this assay.
inactive

Outcome logged for N#CC12COC3(CCCCC3C1(C#N)C#N)OC2=N (stereo unspecified) in this assay:
inactive

Name the outcome recorded for CC(=O)NC1=C(C)C(=O)c2c(nc3n2CCC3OC(=O)c2ccccc2)C1=N (stereo unspecified) in the assay.
inactive

How was "CN(C)c1n/c(=N/Cc2cccnc2)ss1" classified in this test?
inactive

Hi, sorry to bother you, what did the test record for COC(=O)C(/C(=N/NC(N)=S)C(=O)Nc1ccccc1[N+](=O)[O-])c1cnc2ccccc2n1 (stereo unspecified) ?
inactive

Test call, this compound: "COc1ccc2nc(NC(=O)C(=O)CC(=O)c3ccc(Cl)cc3)sc2c1"
inactive

What did this assay record as the result for O=C1CC2(c3ccccc3)ON=C(c3ccccc3)N2c2ccccc2N1 (stereo unspecified) ?
inactive

Recorded test call requested for "CCN(c1cccc(NC(=S)Nc2ccccc2N(CC)c2cc(-c3ccccc3)no2)c1)c1cc(-c2ccccc2)no1"
inactive

Field: outcome | Entry: "NC(=O)c1ccccc1[N+](=O)[O-]"
inactive

Query: recorded result category for N/N=C(\C(=O)Nc1c(Cl)cc([N+](=O)[O-])cc1Cl)C(c1cnc2ccc([N+](=O)[O-])cc2n1)[N+](=O)[O-] (stereo unspecified) in this test
inactive

Further cases:
Hey, what did the test say about "O=S1(=O)OCCOS(=O)(=O)C1(F)Cc1ccccc1" ?
inactive

Tell me the recorded outcome of this test for "COc1cc2c(cc1OC)-c1cc3cc(OC)c(OC)cc3c(=O)n1CC2" .
inactive

Dear colleague, could you share the recorded outcome for "CCOC(=O)CNC(=O)NC12CC3CC(CC(C3)C1)C2" when you have a moment?
inactive

Could you check what this test reported for "C=C(C)CC1=C(C(=S)NCCO[Si](C)(C)C(C)(C)C)C(OCC)(OCC)C1=O" ?
inactive

Could you check what this test reported for "Nc1cc(OCc2ccccc2)c(OCc2ccccc2)cc1C=O" ?
inactive

Check the results log: what was the call for C=C(C)CC1=C(OCC)C(OC)(OCC)C1=O (stereo unspecified) ?
inactive

For this compound, state the assay outcome: O=C1Nc2nc3ccccc3n2N=C2CCCC12 (stereo unspecified)
inactive

---

Tested on: PC-3
ASSAY OVERVIEW: NCI tumour cell line growth inhibition, 48 h
Activity calls are given as the source filed them. No stated cut-off is given here; in the data, active = GI50 up to about 1.1 µM and inactive = higher.
# GI50 annotations

Worked examples, 5 compounds total:
Name the recorded GI50 of CC(C)C(C=O)C(O)(C(F)(F)F)C(F)(F)F (stereo not given) , assay system PC-3.
> 100 µM (inactive)

With PC-3 as the test system, provide measured GI50 for this compound: "O=C(c1ccccc1)c1ccc(N2C(=O)/C(=C/Cc3ccco3)N=C2c2ccccc2)c(N2C(=O)/C(=C/Cc3ccco3)N=C2c2ccccc2)c1"
39.8 µM (inactive)

// output GI50; input "CCOc1c2ccsc2c(OCC)c2ccsc12" ; system PC-3
3.94 µM (inactive)

For PC-3, give the measured GI50 of the entry "CC/C(Cl)=N\OC(=O)Nc1ccc(F)cc1F"
17.7 µM (inactive)

Return reported GI50 for target or system PC-3, item "C[C@]12CC[C@@H]3c4cc(Br)c(O)c(Br)c4CC[C@H]3[C@@H]1CCC2=O" .
30.8 µM (inactive)

***
Fill in: GI50 on PC-3, entry "O=C(c1ccc2ccccc2c1)C1(I)S(=O)(=O)OCCOS1(=O)=O"
> 100 µM (inactive)

Would you please give the reported GI50 of CCC(C)C(=O)OC1CC2(C)C(c3ccoc3)OC(=O)CC23OC2(C)OC34C(OC(=O)C(C)C)C3(O)C(OC(=O)C5(C)OC5C)C5(C)CC3(O)C(C)(C5CC(=O)OC)C14O2 (stereo not given) with PC-3?
31.8 µM (inactive)

Output reported GI50 of the compound "Cc1cc(=O)n2nc(CCl)sc2n1" on PC-3.
13.3 µM (inactive)

// output GI50; input "COc1ccc(C(=O)Nc2ccc(O)c(=O)cc2)cc1" ; system PC-3
40 µM (inactive)

Print PC-3 GI50 for CCOP(=O)(OCC)OC1CC(n2cc(C)c(=O)n(C)c2=O)OC1CO[Si](C)(C)C(C)(C)C (stereo not given) .
29.1 µM (inactive)

---

Test system: U-251
ASSAY OVERVIEW: NCI tumour cell line growth inhibition, 48 h
Active and inactive are the calls of the source. Rule as the data show it: active = GI50 up to about 1.1 µM and inactive = higher.
MEASURE: GI50

Find the measured GI50 of "COc1cc(C(N)=O)cc(NC(=O)/C=C/c2ccccc2)c1OC" and report it.
> 100 µM (inactive)

Give GI50 for CSCCC(NC(=O)OC(C)(C)C)C(=O)NCCNc1ccc(NCCNC(=O)C(CCSC)NC(=O)OC(C)(C)C)c2c1C(=O)c1ccccc1C2=O (stereo not given)
2.88 µM (inactive)

Kindly indicate its recorded GI50. Item: CC(C)C1CSC2N1C(=O)C2(OCc1ccccc1)C1CC1 (stereo not given)
> 100 µM (inactive)

For the molecule "CCOC(=O)C1=NN(c2ccc(Cl)cc2)C2=CC(C)=NN(C)C(=S)N21" , give its measured GI50 value.
25.9 µM (inactive)

State its GI50 for this molecule: "C=C(CS(=O)(=O)c1ccccc1)[P+](c1ccccc1)(c1ccccc1)c1ccccc1"
> 10 µM (inactive)

Write down GI50 measured for item "O=S1(=O)OCCOS(=O)(=O)C1(F)Cc1ccccc1"
> 100 µM (inactive)

---
Return the recorded GI50 value; entry: "c1ccc2c(c1)SCCc1cn[nH]c1-2"
> 100 µM (inactive)

Tell us which GI50 value is on record for COC(=O)c1c2c(cc3c1CC1(C3)Cc3ccc4c(c3C1=O)CCC4)CCC2 (stereo not given)
3.33 µM (inactive)

Supply reported GI50 belonging to this molecule: CC(C)C(C=O)C(O)(C(F)(F)F)C(F)(F)F (stereo not given)
> 100 µM (inactive)

Supply GI50 value. Item: "S=C1N(/N=C/c2c3ccccc3cc3ccccc23)C(=N\c2ccccc2)/C(=N/c2ccccc2)N1c1ccccc1"
> 100 µM (inactive)

---

System: 786-0
ASSAY OVERVIEW: NCI tumour cell line growth inhibition, 48 h
Active and inactive are the calls of the source. Cut-off read from the data, not from the text of the source: active = GI50 up to about 1.1 µM and inactive = higher.
MEASURE: GI50

Please review the following examples before continuing.
System 786-0. Read-out GI50. Item "CCOC(=N)CC(=O)c1ccccc1" . Report value.
> 100 µM (inactive)

Recall the reported GI50 of "CC1=NN(c2nc(N)nc(/C(C#N)=C/c3ccccc3O)n2)C(C)(C)C1" when tested on 786-0.
15.7 µM (inactive)

Could you now look at the following molecule, please?
Specify the recorded GI50 for "O=C1CCSC(=S)N1c1ccc(Br)c(Cl)c1" , system: 786-0.
24.4 µM (inactive)

---

GI50 values for the compounds below.
Tested on: HCT-15

For orientation, consider the following solved cases.
Param request: GI50 | system HCT-15 | item "O=C(O)c1cc(/C=C/c2ccc(O)c(O)c2)ccc1O"
> 100 µM

Look up HCT-15 data: GI50 of "O=C(/C=C/c1ccc(O)cc1)NCCc1ccc(O)cc1" , then report it.
> 12.5 µM

Continuing:
Send back HCT-15 GI50 of "Cc1cc(=O)n2nc(CCl)sc2n1" only.
13.6 µM

Provide GI50, system HCT-15, entry "N=C(N)c1ccc(/N=N\c2c(O)ccc3c2[nH]c2ccccc23)cc1"
39.1 µM

Give GI50 only, for "COC(=O)n1c(CBr)c(Br)c2ccccc21" , using HCT-15 data.
42.2 µM

Provide GI50, recorded with HCT-15, of "O=C1Nc2ccccc2/C1=C1/Nc2ccccc2/C1=N/OCCO"
0.433 µM
